# assayTarget: PD-1/PD-L1 (Homo sapiens, UniProt Q9NZQ7)
# Construct: Recombinant human PD-L1 protein (19-238) with a Histag at the C-terminus; PD1-H5257 (PD-1)
# Sequence (Q9NZQ7 19-238): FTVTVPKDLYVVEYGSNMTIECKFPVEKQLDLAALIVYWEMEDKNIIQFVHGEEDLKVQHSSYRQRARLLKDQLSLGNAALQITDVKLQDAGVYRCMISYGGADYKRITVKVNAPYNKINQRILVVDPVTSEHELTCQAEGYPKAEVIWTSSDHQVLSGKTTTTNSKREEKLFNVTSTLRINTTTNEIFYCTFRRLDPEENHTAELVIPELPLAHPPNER
# protocolSummary: PD-1/PD-L1 Homogeneous Time-Resolved Fluorescence (HTRF) Binding Assay
# studyConditions: PD-1/PD-L1 HTRF activity; 3 nM PD1, 10 nM PD-L1, 25° C.
# Experimental: Example 107. PD-1/PD-L1 Homogeneous Time-Resolved Fluorescence (HTRF) Binding Assay The assays were conducted in a standard black 384-well polystyrene plate with a final volume of 20 μL. Inhibitors were first serially diluted in DMSO and then added to the plate wells before the addition of other reaction components. […] After centrifugation, the plate was incubated at 25° C. for 60 min. before reading on a PHERAstar FS plate reader (665 nm/620 nm ratio). […]
readoutLabel: IC50

{"compound": "O=C1CCC(Cn2cc(F)n3cc(-c4cccc(-c5cccc(-c6cc7c(=O)n(CC8CCC(=O)N8)cc(F)n7c6)c5Cl)c4Cl)cc3c2=O)N1 (centres unmarked) [Compound 16]", "endpointResult": "10 to 100 nM"}
{"compound": "O=C1CCC(Cn2cnn3cc(-c4cccc(-c5cccc(-c6cc7c(=O)n(CC8CCC(=O)O8)cnn7c6)c5Cl)c4Cl)cc3c2=O)O1 (centres unmarked) [Compound 27]", "endpointResult": "≥ 100 nM"}
{"compound": "Cc1cn2nc(-c3cccc(-c4cccc(-c5cc6c(=O)n(C(C)CN[C@@H](CO)C(=O)O)c(C)cn6n5)c4Cl)c3Cl)cc2c(=O)n1C(C)CN[C@@H](CO)C(=O)O (some centres unmarked) [Compound 94]", "endpointResult": "10 to 100 nM"}
{"compound": "O=C1CC[C@@H](Cn2c(C3CC3)cn3cc(-c4cccc(-c5cccc(-c6cc7c(=O)n(C[C@@H]8CCC(=O)N8)c(C8CC8)cn7c6)c5Cl)c4Cl)cc3c2=O)N1 [Compound 31]", "endpointResult": "10 to 100 nM"}

The record that follows has no IC50 shown yet.
Could you share which IC50 value was measured for Cc1cn2nc(-c3cccc(-c4cccc(-c5cc6c(=O)n(CC(C)N[C@@H](CO)C(=O)O)c(C)cn6n5)c4Cl)c3Cl)cc2c(=O)n1CC(C)N[C@@H](CO)C(=O)O (some centres unmarked) [Compound 87] ?
≥ 100 nM
